Below, each of the molecules is paired with its reported melting point value.
quantityKind: melting point

{"molecule": "NC(=O)CC[C@H](NC(=O)OCc1ccccc1)C(=O)O", "recordedMeasurement": "135 to 137 °C"}
{"molecule": "Cc1c(C(=O)O)nnn1Cc1ccc(Br)cc1", "recordedMeasurement": "192 to 193 °C"}
{"molecule": "NNC(=O)c1cccc(Cl)c1", "recordedMeasurement": "158 °C"}
{"molecule": "CCOC(=O)C1=C(COCCN)NC(C)=C(C(=O)OC)C1c1ccccc1Cl (stereo not given)", "recordedMeasurement": "178 °C"}
{"molecule": "Cc1cc(C)c(C2(C)CC(C(=O)c3cc4cc(Br)ccc4o3)C2)c(C)c1 (stereo not given)", "recordedMeasurement": "208 to 209 °C"}
{"molecule": "CC(Cc1ccccc1)C(=O)O (stereo not given)", "recordedMeasurement": "37 to 37.5 °C"}
{"molecule": "Cc1cc(Cl)c(Cl)cc1Cl", "recordedMeasurement": "82.4 °C"}
{"molecule": "NNC(=S)NCCN1CCCCC1", "recordedMeasurement": "121 to 123 °C"}
{"molecule": "CC(C)(C#N)OC1OC(CO)C(O)C(O)C1O (stereo not given)", "recordedMeasurement": "145 °C"}
{"molecule": "Clc1cccc2c(-c3ccccc3)c(-c3ccccc3)[nH]c12", "recordedMeasurement": "97 to 98 °C"}
{"molecule": "O=Cc1csc(-c2cccc(Cl)c2)n1", "recordedMeasurement": "103 to 104 °C"}
{"molecule": "CSc1nc2cc(NCc3ccccc3)ccc2[nH]1", "recordedMeasurement": "164 to 167 °C"}
{"molecule": "NC(CC(=O)O)c1ccc(Cl)cc1 (stereo not given)", "recordedMeasurement": "243 to 245 °C"}
{"molecule": "COC(OC)c1ccc(C#N)c(S)n1", "recordedMeasurement": "137 to 139 °C"}
{"molecule": "NC(=O)CNCCS(=O)(=O)O", "recordedMeasurement": "270 to 295 °C"}
{"molecule": "COC1C(O)C(C)OC(OC2CCC3(C)C(CCC4C3CCC3(C)C(C5=CC(=O)OC5)CCC43O)C2)C1O (stereo not given)", "recordedMeasurement": "221 °C"}
{"molecule": "CS(=O)(=O)c1cc(Cl)c(O)c(Cl)c1", "recordedMeasurement": "223 to 224 °C"}
{"molecule": "CC(C)(C)OC(=O)N1CCNCC1", "recordedMeasurement": "47 to 49 °C"}
{"molecule": "O=C(Cl)c1ncoc1-c1ccccc1", "recordedMeasurement": "74 to 79 °C"}
{"molecule": "O=C(Oc1ccccc1)c1c2ccccc2nc2ccccc12", "recordedMeasurement": "188 to 192 °C"}
{"molecule": "CNC(=O)Cc1ccccc1", "recordedMeasurement": "55 to 59 °C"}
{"molecule": "O=C(Nc1cccc(C(F)(F)F)c1)Nc1nnc(-c2ccc(Cl)cc2)o1", "recordedMeasurement": "236 to 238 °C"}
{"molecule": "COC(=O)c1ccccc1NC(C)=O", "recordedMeasurement": "97 to 101 °C"}
{"molecule": "Brc1ccc2c(c1)Oc1ccccc1O2", "recordedMeasurement": "90 °C"}
{"molecule": "O=C(c1ccc[nH]1)C(Cl)(Cl)Cl", "recordedMeasurement": "72 to 74 °C"}
{"molecule": "COC(=O)C=C(C)OP(=O)(OC)OC", "recordedMeasurement": "21 °C"}
{"molecule": "O=[N+]([O-])c1cccc(Cl)c1O", "recordedMeasurement": "70 °C"}
{"molecule": "ClC(Cl)(Br)CBr", "recordedMeasurement": "-26 °C"}
{"molecule": "O=C(O)C=Cc1ccc(OC(F)(F)F)cc1", "recordedMeasurement": "178 to 179 °C"}
{"molecule": "FC(F)(F)c1cnc(S)c(Cl)c1", "recordedMeasurement": "145 to 149 °C"}
